Assay: Two-week oral toxicity study in cats
Type: in vivo
Conditions: both sexes, mixed breed, cat, in vivo; cats, oral capsule once daily, 14 days; read-out: no-observed-adverse-effect-level (NOAEL)
reportedEndpoint: NOAEL at 14 days (mg/kg/day)
One number for each entry, in mg/kg/day.

IN: I am curious: what NOAEL at 14 days value has been reported for `CN1N=C2CCN(C(=O)[C@@H](COCc3ccccc3)NC(=O)C(C)(C)N)C[C@@]2(Cc2ccccc2)C1=O.O=C(O)C(O)C(O)C(=O)O` ?
OUT: 15
